# Test system: UACC-257 melanoma
# assay.details: NCI-60 one-dose screen, 48 h (100 = growth as untreated, 0 = no growth, -100 = all killed)
# test.context: 10 µM
This is part of a sample that, as a whole, favours compounds with a hit. Of some 83,000 tested, about 20% had one in any assay.
property.name: growth (%)
Field format: number, assumed %, no unit text.

{"columns": ["compound", "target.or.test.system", "result.unit", "growth"],
 "data": [
  ["CSC[C@H](NC(=O)COc1cccc2cnccc12)C(=O)NC(Cc1ccccc1)C(O)C(=O)N1CSC[C@H]1C(=O)NC(C)(C)C (some centres undefined)", "UACC-257 melanoma", "%", 106],
  ["Cc1cc(=O)[nH]c(NN=C2CCCC2)n1", "UACC-257 melanoma", "%", 125],
  ["c1ccc2c(c1)Sc1ccccc1S2", "UACC-257 melanoma", "%", 99.9]
]}

INPUT: I have this compound here, O=[N+]([O-])c1ccc(N=Nc2ccc(O)c3ccccc23)cc1 , and I need its recorded growth.
OUTPUT: 17

INPUT: What value of growth has been recorded for this entry: CCN(CC)C(=O)/C=C(/C)c1ccccc1
OUTPUT: 110

INPUT: # get_value(readout='growth', item= COc1cc2cc(c1Cl)N(C)C(=O)C[C@H](OC(=O)[C@H](C)N(C)C(C)=O)[C@]1(C)O[C@H]1[C@H](C)[C@@H]1C[C@@](O)(NC(=O)O1)[C@H](OC)C=C/C=C(\C)C2 )
OUTPUT: 12.4

----------
# Test system: SF-295 CNS
# assay.details: NCI-60 one-dose screen, 48 h (100 = growth as untreated, 0 = no growth, -100 = all killed)
# test.context: 10 µM
This is part of a sample that, as a whole, favours compounds with a hit. Of some 83,000 tested, about 20% had one in any assay.
property.name: growth (%)
The response must be a number in % with no trailing unit.

{"columns": ["compound", "result.unit", "growth"],
 "data": [
  ["CN(C)C(=O)Oc1cccc([N+](C)(C)C)c1", "%", 96.8]
]}

INPUT: What value of measured growth is listed for c1ncc2[nH]cnc2n1 ?
OUTPUT: 116

INPUT: // growth lookup, key: Nc1nc(N)c(N=Nc2ccc(C(=O)O)cc2)c(N)n1
OUTPUT: 104

INPUT: Fill blank: measured growth of the compound Cc1cc(C)c(N)c(S(=O)(=O)O)c1 is ____.
OUTPUT: 104

INPUT: What growth value was documented for this compound, O=[N+]([O-])c1ccc(-c2ncc(-c3ccc(Br)cc3)o2)cc1 ?
OUTPUT: 98.3

INPUT: Item under review: COc1cc(/C=N\Nc2ccccc2)ccc1OC(=O)c1ccccc1 . Reported growth?
OUTPUT: 50.5

INPUT: Look up growth for this compound: Cc1ccc(/C=C2\SC(=S)N(c3ccc(F)cc3)C2=O)o1
OUTPUT: 73

INPUT: # growth lookup, item CCCCC1C(=O)N(c2ccccc2)N(c2ccccc2)C1=O
OUTPUT: 110

INPUT: # query: growth of entry NC(C(=O)O)C(O)c1ccco1 (stereo unspecified)
OUTPUT: 108

INPUT: So what's the measured growth for this one? [O-][N+](=Nc1cccc(Cl)c1)c1cccc(Cl)c1
OUTPUT: 104

INPUT: Please look up its growth: CCOC(=O)CNN
OUTPUT: 102

INPUT: Entry CCOC(=O)C1OC1c1ccccc1 (stereo unspecified) : reported growth = ?
OUTPUT: 93.2

INPUT: Can you look up the measured growth of C=CC(O)CCC (stereo unspecified) for me?
OUTPUT: 91.1

INPUT: Look at this compound and give its reported growth. Cc1ccc(C(=O)c2ccccc2)c(C)c1
OUTPUT: 136

INPUT: For the compound CSC[C@H](NC(=O)COc1cccc2cnccc12)C(=O)NC(Cc1ccccc1)C(O)C(=O)N1CSC[C@H]1C(=O)NC(C)(C)C (stereo partly specified) , what growth is on record?
OUTPUT: 97.4

INPUT: So what does the record say about growth for Cc1cc(N2CCC(N3CCCC3)CC2)nc(/N=C(\N)Nc2ccc(Cl)c(Cl)c2)n1 ?
OUTPUT: -96.2

----------
# System: HCT-116 colon
# assay.details: NCI-60 one-dose screen, 48 h
# test.context: 10 µM
About 83,000 compounds went through this panel and 20% of them were active in at least one assay; those are over-represented in the sample as a whole. Calls of active or inactive are those of the source. Rule for the calls: active = growth percent below 10; inactive = the rest.
Bench note: report the call from class 1 = active, class 0 = inactive

Answered cases to consult:
{"columns": ["compound", "assigned.class"],
 "data": [
  ["CCC(=O)Oc1ccc(OC)cc1", "class 0"],
  ["Cc1ccccc1N=C(c1ccccc1)C1C(=O)c2ccccc2C1=O", "class 0"],
  ["CN(C)c1ccc(CNC(C(=O)c2ccccc2)c2ccccc2)cc1 (stereo unspecified)", "class 0"],
  ["COC1=CC(=O)c2nc(Cl)ccc2C1=O", "class 1"],
  ["CN(C)c1ccc(S(=O)(=O)O)cc1", "class 0"]
]}

Let us examine a further case.
INPUT: Returns: the outcome recorded for CCNc1nc2c(cnn2C)c(=O)[nH]1 in this assay.
OUTPUT: class 0

----------
# reported growth; entries follow
# Tested on: TK-10 renal
# assay.details: NCI-60 one-dose screen, 48 h (100 = growth as untreated, 0 = no growth, -100 = all killed)
# test.context: 10 µM unless noted
Compounds without any hit were thinned out: in the full panel of roughly 83,000, 20% have a hit.
Could you give me the number in %? Just the number is fine.

{"columns": ["compound", "growth (%)"],
 "data": [
  ["O=C(/C(=N/O)c1ccccc1)c1ccccc1", 108],
  ["O=c1[nH]n(-c2ccccc2)c(=O)cc1Cl", 102],
  ["CCOC(=O)C1OC1c1ccccc1 (stereo unspecified)", 103],
  ["CN1C(=O)CN2CCc3ccccc3C2c2cc(Cl)ccc21 (stereo unspecified)", 111],
  ["CC(=O)NC(N)=S", 100],
  ["Cc1cc(/C=C/c2ccc3cc(N(C)C)ccc3[n+]2C)c(C)n1-c1ccccc1", -5.02]
]}

INPUT: What is its growth for TK-10 renal? Entry: C[N+](C)(C)C(=O)c1ccccc1
OUTPUT: 102

INPUT: Hi! What's the reported growth for CN(C)c1ccc2oc(=O)c3ccccc3c2c1 on TK-10 renal?
OUTPUT: 107

INPUT: Provide value of growth for this record tested with TK-10 renal: CCOC(=O)C(C#N)Cc1ccccc1 (stereo unspecified)
OUTPUT: 106

INPUT: // fetch TK-10 renal growth for O=C(O)CCCc1ccccc1
OUTPUT: 98.9

INPUT: Missing value: growth, TK-10 renal, entry CCOC(=O)c1[nH]c(C)c(C(=O)O)c1C . Fill in?
OUTPUT: 104

INPUT: Missing value: growth, TK-10 renal, entry Cc1c(O)cnc2nn(-c3ccccc3)c(=N)n12 . Fill in?
OUTPUT: 109

INPUT: Give TK-10 renal growth for COc1ccccc1C1OC2=Nc3cc(C)c(C)cc3NC2C1=O (stereo unspecified)
OUTPUT: 55.1

INPUT: Request: growth, test system TK-10 renal, entry CCN1C(=O)/C(=C/C=C/N(C)c2ccccc2)SC1=S
OUTPUT: 85.6

INPUT: Please provide the recorded growth for C#Cc1cccc(NC(=O)c2ccc(Cl)cc2Cl)c1 , tested on TK-10 renal.
OUTPUT: 106

INPUT: Given the entry OCc1ccc(-c2ccc(-c3ccc(CO)s3)o2)s1 , what growth was observed with TK-10 renal?
OUTPUT: -20.9

INPUT: GET /values?readout=growth&system=TK-10 renal&item= CC(=O)OC(C(=O)O)c1ccccc1 (stereo unspecified)
OUTPUT: 117

INPUT: # query: growth | item O=S(=O)(O)CC(O)CN1CCN(CCO)CC1 (stereo unspecified) | system: TK-10 renal
OUTPUT: 116

INPUT: Find growth (TK-10 renal) for the entry Nc1nc(N)c(N=Nc2ccc(C(=O)O)cc2)c(N)n1
OUTPUT: 130

INPUT: Reported growth for TK-10 renal, given Nc1nc(N)c2cc(S(=O)(=O)c3cccc(C(F)(F)F)c3)ccc2n1 ?
OUTPUT: 72.6

INPUT: Record CC1=CC(C)(C)NC(=S)N1c1ccc(S(=O)(=O)O)c2cccc(S(=O)(=O)O)c12 : what is its growth with TK-10 renal?
OUTPUT: 106

----------
# System: OVCAR-3 ovarian
# assay.details: NCI-60 one-dose screen, 48 h
# test.context: 10 µM
# Experimental: Growth inhibition of the OVCAR-3 human tumor cell line is measured as a screen for anti-cancer activity. Cells are grown in 96 well plates and exposed to the test compound for 48 hours. Compounds are tested at a single concentration, which is 10^-5 M for most compounds. The reported endpoint is percent growth (GI% or GIPRCNT), where numbers from 0 - 100% represent growth inhibition, and numbers from -100% - 0 represent cell death. For example, a value of 40 represents 60% growth inhibition. […]
The panel holds about 83,000 compounds, 20% with a hit somewhere; the sample as a whole holds those more often. Activity calls are given as the source filed them. Rule for the calls: active = growth percent below 10; inactive = the rest.
Form entry, call: pick from true (1) for active, false (0) for inactive

Worked set:
{"columns": ["compound", "target.or.test.system", "assigned.class"],
 "data": [
  ["CCCCN(CCCC)CCCO", "OVCAR-3 ovarian", "false (0)"],
  ["O=C(O)c1cccc([N+](=O)[O-])c1O", "OVCAR-3 ovarian", "false (0)"],
  ["O=C(Cc1nc2ccc([N+](=O)[O-])cc2nc1CC(=O)c1ccccc1)c1ccccc1", "OVCAR-3 ovarian", "false (0)"],
  ["CC(C)=CC(=O)OC(=O)C=C(C)C", "OVCAR-3 ovarian", "false (0)"],
  ["CCCCC1C(=O)N(c2ccccc2)N(c2ccccc2)C1=O", "OVCAR-3 ovarian", "false (0)"]
]}

INPUT: Status in this test for CCOC(=O)C/C(C)=N\O ?
OUTPUT: false (0)

INPUT: Which outcome was assigned to CCOC(=O)c1cc(/C=C/c2cccc(Cl)c2)on1 in this test?
OUTPUT: false (0)

INPUT: Hi, do you know how O=C1C[C@H](c2ccccc2)[C@H](c2ccccc2)C1 came out in this test?
OUTPUT: false (0)

INPUT: Please let me know the test result on file for CC(CN1CCCCC1)NC(=O)c1scnc1-c1ccccc1 (configuration not stated) .
OUTPUT: false (0)

INPUT: What did the test return for O=C(CCl)Nc1ccc2c(c1)C(=O)c1ccc(NC(=O)CCl)cc1C2=O ?
OUTPUT: true (1)
